# measured.on: T1, O7
# T1 chain: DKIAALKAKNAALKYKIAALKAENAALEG
# assay.text: two-hybrid library CCNG1;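 note: natural log of median RNA to DNA barcode read ratio; higher means stronger binding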
Listed below: interaction score values for each entry.
Give only the figure.

DKIAALKAEIAALEYKNAALKAKNAALKG [O4]: -2.43

Value lookup for interaction score; key = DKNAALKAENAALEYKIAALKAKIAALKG [O10] -2.17

Value lookup for interaction score; key = DENAALEAKNAALKYKIAALKAKIAALKG [O2] -2.4

Value lookup for interaction score; key = DENAALEAEIAALEYKNAALKAEIAALEG [O5] -2.16

Value lookup for interaction score; key = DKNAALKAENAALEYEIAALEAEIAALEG [O1] -2.15

Value lookup for interaction score; key = DKIAALKAKNAALKYEIAALEAKNAALKG [O16] -1.81

Value lookup for interaction score; key = DKNAALKAKIAALKYENAALEAKIAALKG [O6] -2.14

Value lookup for interaction score; key = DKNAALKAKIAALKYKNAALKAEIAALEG [O13] -2.53

Value lookup for interaction score; key = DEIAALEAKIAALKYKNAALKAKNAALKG [O12] -2.15
